B1: C10orf62 (parent)
chain: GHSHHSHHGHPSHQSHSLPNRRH

variants of: B1; experiment: protein stability index of a GFP-peptide fusion (GPS, HEK-293T) (PSI 1-6); higher = more stable; conditions: c terminus: native;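 also: lentivirally expressed fusions sorted by FACS into six bins by GFP to DsRed ratio, PSI derived from sequencing read proportions per bin multiplied by bin number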
reported.property: protein stability index
Give a plain numeric answer without units written out.

GHSHHSHHGHPSHQSHMLPNRRH [S17M] : 3.01

Can you share its protein stability index? I mean this variant: GHSHHRHHGHPSHQSHSLPNRRH [S6R]
2.98

Note, next up: GHSHHSHHGHPSHQTHSLPNRRH [S15T]
2.91

Note, next up: GHSHHSHHGHPDHQSHSLPNRRH [S12D]
2.98

Note, next up: GHSHHSHHGHPSHQSHSLYNRRH [P19Y]
3.05

The origin of these recorded values is the supplement of paper PMC10567573.
